# studyTarget: T1, Strep tagged recombinant human PD-1 (human, UniProt Q15116 25-170, limits assumed)
# T1 construct: the whole entry is named; also called strep tagged human PD-1; not shown: Strep tag
# T1 sequence (Q15116 25-170 limits assumed): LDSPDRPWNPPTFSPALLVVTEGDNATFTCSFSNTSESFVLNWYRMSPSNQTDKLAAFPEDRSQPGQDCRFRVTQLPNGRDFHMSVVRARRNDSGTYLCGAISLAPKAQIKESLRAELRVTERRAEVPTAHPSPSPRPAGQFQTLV
# assayMethodText: SPR Biacore T200, strep-tagged PD-1 amine-coupled, single cycle kinetics
# Experimental: Single cycle kinetics assays were used to study the interaction between human PD-1 with Humabody® on a Biacore T200 instrument (GE Healthcare). Strep tagged recombinant human PD-1 was amine coupled to one flow cell of a CM-5 chip to create a low density surface (14 RU) using standard Biacore reagents. For the reference flow cell, a blank immobilisation was carried out. A five-point, three-fold dilution series of each Humabody® was made with a top concentration of 25 nM. […]
quantityName: koff (s⁻¹)

Humabody® 1.105 (VHH, human VH single domain antibody) VHH: EVQLVESGGGLVKPGGSLRLSCAASGFTFSDESLTWMRQAPGKGLEWVSYISSGGGVKFYTDSVKGRFTISRDNAKNSLYLQMNSLRAEDTAVYYCAREAPLRLGESPHDAFDISGQGTMVTVSS: 8.7e-05
Humabody® 1.96 (VHH, human VH single domain antibody) VHH: EVQLVESGGGLVKPGGSLRLSCAASGFTFSDTSMTWMRQAPGKGLEWVSYISSGGGVKFYADSVKGRFTISRDNAKNSLYLQMNSLRAEDTAVYYCAREAPLRLGESPHDAFDISGQGTMVTVSS: 0.00012
